Reference for the values: patent US5637582A

compounds and their reported Vertebral Arterial Blood Flow change (side effects)
System: vertebral artery
PROTOCOL DETAILS: Change of vertebral arterial blood flow in anesthetized dogs (Experimental Example 4)
EXPERIMENTAL PARAMETERS: 100 μg/kg i.v., 1 min

CC(=O)O[C@H]1C(=O)N(CCN(C)C)c2ccc(C)cc2S[C@H]1c1ccc(C)cc1 [G, reference compound]
26.5 Δ ml/min
COc1ccc([C@@H]2Sc3ccccc3N(CCN(C)C)C(=O)[C@@H]2OC(C)=O)cc1 [H, reference compound]
25.5 Δ ml/min
COc1ccc([C@H]2Sc3ccccc3N(CCN(C)C)C(=O)[C@H]2OC(C)=O)cc1
-0.5 Δ ml/min

The compound CC(=O)O[C@@H]1C(=O)N(CCN(C)C)c2ccc(C)cc2S[C@@H]1c1ccc(C)cc1 showed Vertebral Arterial Blood Flow change (side effects) equal to 0.3 Δ ml/min

* * *

Tested on: femoral artery
PROTOCOL DETAILS: Increase in femoral arterial blood flow in anesthetized dogs, cumulative i.v. dosing (Experimental Example 1)
Format: in vivo, dog
EXPERIMENTAL PARAMETERS: 30 μg/kg i.v., 60 min after administration
Structures can show the parent of a compound that is named as a salt.
Increase in femoral arterial blood flow less than 20 mL/min is true; Increase in femoral arterial blood flow greater than or equal to 20 mL/min is false.

Example entries begin here.
CC(=O)O[C@@H]1C(=O)N(CCN(C)C)c2ccc(CO)cc2S[C@@H]1c1ccc(C)cc1 [Compound E, oxalate]
true
CC(=O)O[C@@H]1C(=O)N(CCN(C)C)c2ccc(C)cc2S[C@@H]1c1ccc(C)cc1
false
COc1ccc([C@H]2Sc3ccccc3N(CCN(C)C)C(=O)[C@H]2OC(C)=O)cc1
false
CNCCN1C(=O)[C@@H](OC(C)=O)[C@@H](c2ccc(C)cc2)Sc2cc(C)ccc21
true

Proceed to the following item.
// query Does the reported Increase in femoral arterial blood flow of the following molecule sit strictly below 20 mL/min? Cc1ccc([C@H]2Sc3cc(C)ccc3N(CCN(C)C)C(=O)[C@H]2O)cc1
// result false

* * *

Tested on: arterial blood pressure
PROTOCOL DETAILS: Change of arterial blood pressure in anesthetized dogs (Experimental Example 4)
EXPERIMENTAL PARAMETERS: 100 μg/kg i.v., 10 min
compounds and their reported Arterial Blood Pressure change (side effects)

Some compounds with recorded Arterial Blood Pressure change (side effects):
COc1ccc([C@H]2Sc3ccccc3N(CCN(C)C)C(=O)[C@H]2OC(C)=O)cc1 [F]
1.5 ΔmmHg
CC(=O)O[C@@H]1C(=O)N(CCN(C)C)c2ccc(C)cc2S[C@@H]1c1ccc(C)cc1 [Compound A]
-1.8 ΔmmHg
COc1ccc([C@@H]2Sc3ccccc3N(CCN(C)C)C(=O)[C@@H]2OC(C)=O)cc1 [H, reference compound]
-1.0 ΔmmHg

The compound CC(=O)O[C@H]1C(=O)N(CCN(C)C)c2ccc(C)cc2S[C@H]1c1ccc(C)cc1 [G, reference compound] showed Arterial Blood Pressure change (side effects) equal to 1.0 ΔmmHg

* * *

System: femoral artery
PROTOCOL DETAILS: Maximum increase in femoral arterial blood flow in anesthetized dogs, cumulative i.v. dosing (Experimental Example 3)
Assay type: in vivo, dog
EXPERIMENTAL PARAMETERS: 300 μg/kg i.v., maximum during 60 min
Counter-ions that a name gives are not always drawn.
PARAMETER: Increase in femoral arterial blood flow (mL/min)
Kindly provide the numeric value in mL/min only, without the unit symbol.

Some compounds with recorded Increase in femoral arterial blood flow:
CC(=O)O[C@@H]1C(=O)N(CCN(C)C)c2ccc(C)cc2S[C@@H]1c1ccc(C)cc1
61.4
CC(=O)O[C@@H]1C(=O)N(CCN(C)C)c2ccc(CO)cc2S[C@@H]1c1ccc(C)cc1 [Compound E, oxalate]
69.2
CNCCN1C(=O)[C@@H](OC(C)=O)[C@@H](c2ccc(C)cc2)Sc2cc(C)ccc21
44.6
Cc1ccc([C@H]2Sc3cc(C)ccc3N(CCN(C)C)C(=O)[C@H]2O)cc1
70.2

Now let's try a different one.
The compound COc1ccc([C@H]2Sc3ccccc3N(CCN(C)C)C(=O)[C@H]2OC(C)=O)cc1 showed Increase in femoral arterial blood flow equal to 37.0

* * *

Test system: femoral artery
PROTOCOL DETAILS: Maximum increase in femoral arterial blood flow in anesthetized dogs, cumulative i.v. dosing (Experimental Example 3)
Type: in vivo, dog
EXPERIMENTAL PARAMETERS: 100 μg/kg i.v., maximum during 60 min
Structures can show the parent of a compound that is named as a salt.
Each entry gets f if its Increase in femoral arterial blood flow stays under 40 mL/min, and t if its Increase in femoral arterial blood flow is 40 mL/min or above.

Example entries begin here.
CC(=O)O[C@@H]1C(=O)N(CCN(C)C)c2ccc(CO)cc2S[C@@H]1c1ccc(C)cc1 [Compound E, oxalate]
t
Cc1ccc([C@H]2Sc3cc(C)ccc3N(CCN(C)C)C(=O)[C@H]2O)cc1
t
COc1ccc([C@H]2Sc3ccccc3N(CCN(C)C)C(=O)[C@H]2OC(C)=O)cc1
f
CNCCN1C(=O)[C@@H](OC(C)=O)[C@@H](c2ccc(C)cc2)Sc2cc(C)ccc21
f

Proceed to the following item.
// query Hi, just wondering whether CC(=O)O[C@@H]1C(=O)N(CCN(C)C)c2ccc(C)cc2S[C@@H]1c1ccc(C)cc1 shows Increase in femoral arterial blood flow of 40 mL/min or higher.
// result t

* * *

System: arterial blood pressure
PROTOCOL DETAILS: Change of arterial blood pressure in anesthetized dogs (Experimental Example 4)
EXPERIMENTAL PARAMETERS: 100 μg/kg i.v., 30 min
compounds and their reported Arterial Blood Pressure change (side effects)

Some compounds with recorded Arterial Blood Pressure change (side effects):
CC(=O)O[C@H]1C(=O)N(CCN(C)C)c2ccc(C)cc2S[C@H]1c1ccc(C)cc1 [G, reference compound]
1.5 ΔmmHg
CC(=O)O[C@@H]1C(=O)N(CCN(C)C)c2ccc(C)cc2S[C@@H]1c1ccc(C)cc1
-0.5 ΔmmHg
COc1ccc([C@H]2Sc3ccccc3N(CCN(C)C)C(=O)[C@H]2OC(C)=O)cc1
2.5 ΔmmHg

Now let's try a different one.
Case COc1ccc([C@@H]2Sc3ccccc3N(CCN(C)C)C(=O)[C@@H]2OC(C)=O)cc1 [H, reference compound] , arterial blood pressure, Arterial Blood Pressure change (side effects) recorded as 1.0 ΔmmHg

* * *

System: arterial blood pressure
PROTOCOL DETAILS: Change of arterial blood pressure in anesthetized dogs (Experimental Example 4)
EXPERIMENTAL PARAMETERS: 100 μg/kg i.v., 3 min
molecules and their reported Arterial Blood Pressure change (side effects)

Some molecules with recorded Arterial Blood Pressure change (side effects):
CC(=O)O[C@@H]1C(=O)N(CCN(C)C)c2ccc(C)cc2S[C@@H]1c1ccc(C)cc1
-0.8 ΔmmHg
CC(=O)O[C@H]1C(=O)N(CCN(C)C)c2ccc(C)cc2S[C@H]1c1ccc(C)cc1 [G, reference compound]
-2.5 ΔmmHg

The molecule COc1ccc([C@@H]2Sc3ccccc3N(CCN(C)C)C(=O)[C@@H]2OC(C)=O)cc1 [H, reference compound] showed Arterial Blood Pressure change (side effects) equal to -4.5 ΔmmHg

The molecule COc1ccc([C@H]2Sc3ccccc3N(CCN(C)C)C(=O)[C@H]2OC(C)=O)cc1 showed Arterial Blood Pressure change (side effects) equal to -0.5 ΔmmHg

* * *

Test system: vertebral artery
PROTOCOL DETAILS: Change of vertebral arterial blood flow in anesthetized dogs (Experimental Example 4)
EXPERIMENTAL PARAMETERS: 100 μg/kg i.v., 5 min
molecules and their reported Vertebral Arterial Blood Flow change (side effects)

Some molecules with recorded Vertebral Arterial Blood Flow change (side effects):
COc1ccc([C@H]2Sc3ccccc3N(CCN(C)C)C(=O)[C@H]2OC(C)=O)cc1
-1.0 Δ ml/min
CC(=O)O[C@@H]1C(=O)N(CCN(C)C)c2ccc(C)cc2S[C@@H]1c1ccc(C)cc1
-0.5 Δ ml/min
COc1ccc([C@@H]2Sc3ccccc3N(CCN(C)C)C(=O)[C@@H]2OC(C)=O)cc1 [H, reference compound]
13.5 Δ ml/min

Now let's try a different one.
Case CC(=O)O[C@H]1C(=O)N(CCN(C)C)c2ccc(C)cc2S[C@H]1c1ccc(C)cc1 [G, reference compound] , vertebral artery, Vertebral Arterial Blood Flow change (side effects) recorded as 11.5 Δ ml/min

* * *

compounds and their reported Vertebral Arterial Blood Flow change (side effects)
Tested on: vertebral artery
PROTOCOL DETAILS: Change of vertebral arterial blood flow in anesthetized dogs (Experimental Example 4)
EXPERIMENTAL PARAMETERS: 100 μg/kg i.v., 30 min

Some compounds with recorded Vertebral Arterial Blood Flow change (side effects):
CC(=O)O[C@H]1C(=O)N(CCN(C)C)c2ccc(C)cc2S[C@H]1c1ccc(C)cc1 [G, reference compound]
2.5 Δ ml/min
CC(=O)O[C@@H]1C(=O)N(CCN(C)C)c2ccc(C)cc2S[C@@H]1c1ccc(C)cc1 [Compound A]
-2.5 Δ ml/min
COc1ccc([C@H]2Sc3ccccc3N(CCN(C)C)C(=O)[C@H]2OC(C)=O)cc1 [F]
0.5 Δ ml/min

Now let's try a different one.
The compound COc1ccc([C@@H]2Sc3ccccc3N(CCN(C)C)C(=O)[C@@H]2OC(C)=O)cc1 [H, reference compound] showed Vertebral Arterial Blood Flow change (side effects) equal to 2.0 Δ ml/min
